# Test Method Notes: Cytotoxicity MTT assay, 24 h, PAR cells
# Type: cell-based
# Conditions Used: mouse, parental (PAR) L5178 mouse T-cell lymphoma cells, read-out: Cytotoxic effect IC50
Measure: IC50 at 24 h (µM)
Give bare numbers, in µM.

// known answers, use as guide
NC1=N/C(=C\c2cccc(Oc3ccccc3)c2)C(=O)N1CCCN1CCOCC1 [Compound 16] ... 16
Cl.O=C1N=C(N2CCC(N3CCOCC3)CC2)N/C1=C\c1c2ccccc2cc2ccccc12 [Compound 13] ... 82.2
Cl.O=C1N=C(N2CCC(N3CCOCC3)CC2)N/C1=C\c1ccc(-c2ccccc2)cc1 [Compound 8] ... 24

Batch request: IC50 at 24 h for each of the following compounds.
1. Cl.O=C1N=C(N2CCC(N3CCOCC3)CC2)N/C1=C\c1ccc2c(c1)Cc1ccccc1-2 [Compound 12]
2. Cl.O=C1N=C(N2CCC(N3CCOCC3)CC2)N/C1=C\c1ccc(Oc2ccccc2)cc1 [Compound 11]
3. COc1cccc2c1C(=O)c1c(O)c3c(c(O)c1C2=O)C[C@@](O)(C(=O)CO)C[C@@H]3O[C@H]1C[C@H](N)[C@H](O)[C@H](C)O1 [DOX, doxorubicin, reference compound]
4. Cl.O=C1N=C(N2CCC(N3CCOCC3)CC2)N/C1=C\c1cccc(Oc2ccccc2)c1 [Compound 10]
5. NC1=N/C(=C\c2ccc(-c3ccccc3)cc2)C(=O)N1CCN1CCOCC1 [Compound 14]

1. 15.8
2. 39.1
3. 0.7
4. 54
5. 36.9

---

# Test System: ABCB1 efflux pump (Homo sapiens, UniProt P08183)
# Sequence (P08183 whole entry): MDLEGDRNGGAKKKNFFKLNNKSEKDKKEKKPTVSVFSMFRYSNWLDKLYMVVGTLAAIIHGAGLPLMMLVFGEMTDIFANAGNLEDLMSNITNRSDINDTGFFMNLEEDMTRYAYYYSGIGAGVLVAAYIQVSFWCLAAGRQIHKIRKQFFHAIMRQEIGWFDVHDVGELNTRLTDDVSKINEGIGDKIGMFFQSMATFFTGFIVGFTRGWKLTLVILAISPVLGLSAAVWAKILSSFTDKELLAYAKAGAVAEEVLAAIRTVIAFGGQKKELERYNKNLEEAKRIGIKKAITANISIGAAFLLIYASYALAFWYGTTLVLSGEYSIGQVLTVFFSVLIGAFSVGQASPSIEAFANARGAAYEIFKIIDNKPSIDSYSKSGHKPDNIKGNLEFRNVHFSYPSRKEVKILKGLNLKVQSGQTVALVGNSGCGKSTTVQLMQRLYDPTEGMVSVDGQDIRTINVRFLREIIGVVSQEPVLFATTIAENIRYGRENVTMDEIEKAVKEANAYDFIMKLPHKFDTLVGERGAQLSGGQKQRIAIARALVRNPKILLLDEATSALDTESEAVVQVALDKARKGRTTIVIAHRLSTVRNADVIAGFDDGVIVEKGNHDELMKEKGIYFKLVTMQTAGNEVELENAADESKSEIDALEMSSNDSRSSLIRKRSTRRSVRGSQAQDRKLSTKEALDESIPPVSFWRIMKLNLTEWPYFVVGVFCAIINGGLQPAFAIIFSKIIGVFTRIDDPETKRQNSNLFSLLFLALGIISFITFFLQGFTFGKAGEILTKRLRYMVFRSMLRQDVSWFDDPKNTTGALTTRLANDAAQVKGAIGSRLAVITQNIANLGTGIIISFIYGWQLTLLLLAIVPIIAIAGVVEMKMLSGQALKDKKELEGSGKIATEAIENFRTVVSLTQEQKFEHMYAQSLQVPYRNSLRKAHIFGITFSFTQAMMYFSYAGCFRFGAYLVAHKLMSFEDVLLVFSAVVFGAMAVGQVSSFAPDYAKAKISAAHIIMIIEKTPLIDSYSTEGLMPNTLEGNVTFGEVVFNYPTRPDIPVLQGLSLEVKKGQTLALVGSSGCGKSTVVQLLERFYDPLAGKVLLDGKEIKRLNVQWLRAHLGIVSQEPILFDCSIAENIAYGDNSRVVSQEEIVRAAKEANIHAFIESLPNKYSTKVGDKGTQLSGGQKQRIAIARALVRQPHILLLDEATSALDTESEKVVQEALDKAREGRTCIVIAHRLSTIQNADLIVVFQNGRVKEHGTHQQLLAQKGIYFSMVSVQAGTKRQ
# Test Method Notes: Rhodamine 123 accumulation assay (flow cytometry)
# Conditions Used: concentration 2 µM; FAR of compound related to FAR of VER tested at 20 µM
Label class 1 for high-side FAR Quotient (%) (at or above 7%) and class 0 for low-side FAR Quotient (%) (below it).

Hello, I need to know if Cl.NC1=N/C(=C\c2ccc3c(c2)Cc2ccccc2-3)C(=O)N1CCCN1CCOCC1 [Compound 18] has measured FAR Quotient (%) not below 7%. Thanks! class 1

Decide: FAR Quotient (%) of Cl.O=C1N=C(N2CCC(N3CCOCC3)CC2)N/C1=C\c1c2ccccc2cc2ccccc12 [Compound 13] >= 7%? class 0

Could you verify whether the entry NC1=N/C(=C\c2c3ccccc3cc3ccccc23)C(=O)N1CCCN1CCOCC1 [Compound 19] shows FAR Quotient (%) of no less than 7%? class 1

API: above_or_equal(metric=FAR Quotient (%), cutoff=7%) for item Cl.O=C1N=C(N2CCN(CCN3CCOCC3)CC2)N/C1=C\c1ccc(-c2ccccc2)cc1 [Compound 9] class 0

Textbook exercise: given the entry Cl.NC1=N/C(=C\c2cc3ccccc3c3ccccc23)C(=O)N1CCCN1CCOCC1 [Compound 20] , state whether its FAR Quotient (%) is greater than or equal to 7%. class 0

Reported FAR Quotient (%) at or above 7%? Cl.O=C1N=C(N2CCC(N3CCOCC3)CC2)N/C1=C\c1ccc(-c2ccccc2)cc1 [Compound 8] class 1

---

Consider the following compounds; for each one, report its FAR (fluorescence activity ratio).
# Test System: ABCB1 efflux pump (Homo sapiens)
# Test Method Notes: Rhodamine 123 accumulation assay (flow cytometry)
# Conditions Used: concentration 20 µM; rhodamine 123 accumulation, MDR vs PAR mouse T-lymphoma cells; VER values for assay group 1 / 2

Use the examples below as a reference point.
Cl.NC1=N/C(=C\c2ccc3c(c2)Cc2ccccc2-3)C(=O)N1CCCN1CCOCC1 [Compound 18] ... 18.095
Cl.O=C1N=C(N2CCN(CCN3CCOCC3)CC2)N/C1=C\c1ccc(-c2ccccc2)cc1 [Compound 9] ... 1.645
Cl.O=C1N=C(N2CCC(N3CCOCC3)CC2)N/C1=C\c1ccc2c(c1)Cc1ccccc1-2 [Compound 12] ... 6.045
Cl.O=C1N=C(N2CCC(N3CCOCC3)CC2)N/C1=C\c1ccc(-c2ccccc2)cc1 [Compound 8] ... 2.409
NC1=N/C(=C\c2cccc(Oc3ccccc3)c2)C(=O)N1CCCN1CCOCC1 [Compound 16] ... 2.426

Kindly give each listed record's FAR (fluorescence activity ratio).
1. Cl.O=C1N=C(N2CCC(N3CCOCC3)CC2)N/C1=C\c1cccc(Oc2ccccc2)c1 [Compound 10]
2. Cl.NC1=N/C(=C\c2ccc(-c3ccccc3)cc2)C(=O)N1CCCN1CCOCC1 [Compound 15]
3. NC1=N/C(=C\c2c3ccccc3cc3ccccc23)C(=O)N1CCCN1CCOCC1 [Compound 19]
4. Cl.O=C1NC(N2CCOCC2)=N/C1=C\c1ccc(-c2ccccc2)cc1 [Compound 7]
5. Cl.NC1=N/C(=C\c2cc3ccccc3c3ccccc23)C(=O)N1CCCN1CCOCC1 [Compound 20]
6. NC1=N/C(=C\c2ccc(-c3ccccc3)cc2)C(=O)N1CCN1CCOCC1 [Compound 14]

1. 1.992
2. 2.221
3. 1.615
4. 0.927
5. 1.237
6. 0.847

Batch lookup, FAR (fluorescence activity ratio) per entry.
1. Cl.O=C1N=C(N2CCC(N3CCOCC3)CC2)N/C1=C\c1ccc(Oc2ccccc2)cc1 [Compound 11]
2. Cl.O=C1N=C(N2CCC(N3CCOCC3)CC2)N/C1=C\c1c2ccccc2cc2ccccc12 [Compound 13]
3. Cl.NC1=N/C(=C\c2ccc(Oc3ccccc3)cc2)C(=O)N1CCCN1CCOCC1 [Compound 17]

1: 23.419; 2: 2.073; 3: 2.301
